Where these numbers come from: patent US20160200786A1

target: GST-BCL-2δC21 fusion protein [GST: P08515]; test: fluorescence polarization, 25 nM fluorescein-peptide titrated with GST-BCL-2, 37 C; SD +/- 11
Ends that are not written are not given here.
measured-property: Kd (nM)
The reply should be a number in nM, with the unit left off.

Task: Endpoint output: Kd of NLWAAQRYGRELRRMSDEFVDSFKK (not fully specified) [BADBH3] . Value?
Result: 41
